# TEST_SYSTEM: full-length beta-Catenin (Uniprot ID P35222) (Homo sapiens (Human)) (UniProt P35222)
# Sequence (P35222 2-781 limits assumed): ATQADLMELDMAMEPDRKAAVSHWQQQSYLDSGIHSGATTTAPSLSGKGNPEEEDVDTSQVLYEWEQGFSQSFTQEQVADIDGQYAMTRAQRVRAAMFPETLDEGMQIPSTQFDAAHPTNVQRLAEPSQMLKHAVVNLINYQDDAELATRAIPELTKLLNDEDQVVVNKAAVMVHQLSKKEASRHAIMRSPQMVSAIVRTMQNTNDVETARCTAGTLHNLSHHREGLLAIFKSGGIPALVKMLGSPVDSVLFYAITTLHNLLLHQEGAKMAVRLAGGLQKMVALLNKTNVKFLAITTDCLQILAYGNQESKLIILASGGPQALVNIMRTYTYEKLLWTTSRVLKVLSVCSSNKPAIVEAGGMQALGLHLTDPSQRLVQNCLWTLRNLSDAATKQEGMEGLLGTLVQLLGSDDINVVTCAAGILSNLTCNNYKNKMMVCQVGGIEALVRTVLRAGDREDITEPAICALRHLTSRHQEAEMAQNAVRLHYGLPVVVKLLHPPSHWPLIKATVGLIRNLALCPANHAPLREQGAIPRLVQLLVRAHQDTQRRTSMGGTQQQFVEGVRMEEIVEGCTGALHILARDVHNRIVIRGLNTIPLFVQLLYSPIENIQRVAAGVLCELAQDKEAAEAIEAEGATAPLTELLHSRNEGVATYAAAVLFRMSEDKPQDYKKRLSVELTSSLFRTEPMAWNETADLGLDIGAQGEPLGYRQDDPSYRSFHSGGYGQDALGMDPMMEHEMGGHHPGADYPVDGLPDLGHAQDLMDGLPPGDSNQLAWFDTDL
# ASSAY_OVERVIEW: fluorescence polarization competition; peptide titrated against 10 nM full-length beta-catenin + 10 nM 5FAM-TCF4(10-53)
Starred links: 1 amine or outer side, 2 acyl side, 3 side chain; linkers in the order of their positions; H or OH if unused. Positions of bridges follow the written chain, without caps; N, C: chain ends. Non-standard residues stand in square brackets, D forms with d. Primed or numbered codes have the meaning given here. B5(3) = 2,2-bis(4-pentenyl)glycine (stitching residue), C=CCCCC(CCCC=C)(N[*:1])C(=O)[*:2]; Phe(2-Cl) = N[C@@H](Cc1ccccc1Cl)C(=O)O; Bta = N[C@@H](Cc1csc2ccccc12)C(=O)O; αAllylPro = C=CC[C@@]1(C(=O)O)CCCN1; tBuAla = CC(C)(C)C[C@H](N)C(=O)O; S8 = C=CCCCCCC[C@](C)(N)C(=O)O
IC50 overview
Numeric answer only, unit nM assumed.

>  <BINDER>
Ac-[αAllylPro]D[tBuAla][B5(3)]DDAAFT[S8][Phe(2-Cl)][Bta]Q-NH2 (staple 1-4, 4-11; also: earlier eluting staple isomer) [I-1086]

>  <IC50 [nM]>
12

$$$$

Prompt: Supply recorded IC50 for Ac-[αAllylPro]D[tBuAla][B5(3)]DDAAFT[S8][Phe(2-Cl)][Bta]T-NH2 (staple 1-4, 4-11) [I-1090] here.
Completion: 18
